The reported measurements were obtained from patent US4851536A.

test system: IL 1-induced release of neutral protease from rabbit articular chondrocytes; assay: Inhibition of IL 1-induced release of neutral protease from rabbit articular chondrocytes (% inhibition of protease secretion, azocoll degradation); format: cell-based, rabbit (male New Zealand White); details: Oryctolagus cuniculus, Chondrocyte, test compound 10 minutes prior to IL 1, 24 hours after IL 1 stimulation
Entries are sorted into classes by inhibition at 10 µM as follows: low (below 40%), mid (40% to below 80%), high (80% or more)

| compound | category-label |
| --- | --- |
| Clc1ccc2c(NNc3ccccc3)c3c(nc2c1)CCSC3 | high |
| COC(=O)C1CCc2nc3cc(Cl)ccc3c(Cl)c2C1 (stereo not drawn) | mid |
| O=C(O)C1CCc2nc3cc(Cl)ccc3c(Cl)c2C1 (stereo not drawn) | high |
| O=S1(=O)CCc2nc3cc(Cl)ccc3c(NNc3ccccc3)c2C1 | low |
| CCOC(=O)C1CCc2nc3cc(Cl)ccc3c(NNc3ccccc3)c2C1 (stereo not drawn) | high |
| Clc1ccc2c(Cl)c3c(nc2c1)CCC(c1ccccc1)C3 (stereo not drawn) [Example 3A, hemihydrate] | low |
| CC1CCc2nc3cc(Cl)ccc3c(Cl)c2C1 (stereo not drawn) [Example 2A, hydrate] | low |
| Clc1ccc2c(Cl)c3c(nc2c1)CCSC3 | low |
| CC1CCc2nc3cc(Cl)ccc3c(NNc3ccccc3)c2C1 (stereo not drawn) | high |
| O=C(O)C1CCc2nc3cc(Cl)ccc3c(NNc3ccccc3)c2C1 (stereo not drawn) [Example 12, hemihydrate] | mid |
| O=S1(=O)CCc2nc3cc(Cl)ccc3c(Cl)c2C1 | low |
| O=S1(=O)CCc2nc3ccccc3c(Cl)c2C1 | low |
| Clc1c2c(nc3ccccc13)CCSC2 | mid |
